target: FAU (Homo sapiens); construct: uncleaved FAU precursor (FUBI fused to ribosomal protein S30); GST-tagged (pGEX-6P-1), E. coli BL21, glutathione agarose; assay: photo-crosslinking, rhodamine-azide click, in-gel fluorescence
recorded_metric: EC50 (µM)
Numbers only, in µM.

For "C#CCCC1(CCN(C)CC2CCN(c3nc(-c4ccncc4)nc4ccccc34)CC2)N=N1" the compound record lists EC50 as 4.3
